# Measurement description: Toxicity liver stage against HepG2, at 10uM
# Assay type: cell-based
# Parameters: test concentration 10 uM, cell line HepG2-A16-CD81EGFP
# Particulars: human, HepG2-A16-CD81EGFP cells; read-out: INHIBITION

Compound	Result unit	cytotoxicity at 10 µM
CC(C)C1Nc2ccccc2C(=O)N1CC(=O)Nc1nc2c(s1)CCC2 (centres undefined)	%	2.31
Cc1csc(CN2C[C@@H]3COC[C@]3(C(=O)NCc3ccco3)C2)n1	%	-105
Cn1cc(C2=CCN(CCC(=O)NCc3ccc(Cl)cc3)CC2)cn1	%	-1.77
O=C(c1cnn2cccnc12)N1CCCC(n2ccnc2)C1 (centres undefined)	%	-29.7
CN(C)c1ccc(C2CC(=O)Nc3c2cnn3Cc2ccco2)cc1 (centres undefined)	%	-3.08
COCc1nnc(NC(=O)c2cn(C(C)C)c3ccc(OC)cc23)s1	%	-5.86
CCOc1ccc(CN(C)C(C)C(=O)Nc2cc(C)no2)cc1 (centres undefined)	%	10.6
CCn1cc(CN2CCc3nc(N4CCOCC4)nc(O)c3CC2)cn1	%	-5.59
CNC(=O)N1CCC2(CC1)c1ncc(C)n1CCN2C	%	5.22
Cc1ccc(N2CCC3(CCN(Cc4ccccn4)CC3)CC2)nn1	%	7.37
COc1ccc(CN(C)CC(O)COCc2ccccc2Cl)c(OC)c1 (centres undefined)	%	18.8
c1cc(-c2cn[nH]c2)ccc1CN1CCNCC1	%	0.866
COCc1cccc(CNCc2c(C)nn(C)c2N2CCOCC2)c1	%	-8.93
CS(=O)(=O)N[C@@H]1CN(Cc2ccc3ccccc3c2)C[C@H]1O	%	-2.92
COC1COC2(CCN(C(=O)c3ncccn3)CC2)C1 (centres undefined)	%	6.07
O=C(CCn1cncn1)NCCOc1cccc(Cl)c1	%	1.58
CS(=O)(=O)N1CCCc2sc(C(=O)NC3CC3)nc21	%	-143
CC(=O)NCc1nc(CC(C)C)nn1-c1cccc(C)c1	%	6.54
Cc1occc1C(=O)N1CCO[C@H]2[C@H](OCc3ccccn3)CC[C@@H]21	%	-104
CC(=O)Nc1ccc2nn(C(C)C)cc2c1	%	-145
CC(CN1CCOCC1)NC(=O)N1CCCC1 (centres undefined)	%	0.651
CCCOc1ccc2c(c1)OCC(C(=O)NC(C)Cn1ccnc1)=C2 (centres undefined)	%	-4.03
O=C(Nc1ccccc1)N1CCC(n2cc3[nH]cccc-3c2=O)CC1	%	-3.73
O=C(C1CCOCC1)N1CCCC1c1cncc(CN2CCCC2)n1 (centres undefined)	%	-0.802
c1cncc(OC[C@]23COC[C@H]2CN(Cc2cccs2)C3)c1	%	-13
CCNC(=O)N1CCC(=Cc2ccccc2)CC1	%	3.87
CC(C)N(C)Cc1cncc2c1CCN(C1CCOCC1)C2	%	5.88
O=C(c1ccc(-c2cccc3c2CCNC3)o1)N1CCCC1	%	3.34
O=C1Nc2ccccc2CN(CC2CC2)C12CCNC2 (centres undefined)	%	6.09
C=C(C)COc1cccc(C(=O)N(CC)Cc2noc(C)n2)c1	%	-4.15
Cn1c(SCc2noc(-c3ccsc3)n2)nnc1C1CCS(=O)(=O)C1 (centres undefined)	%	3.39
Cc1ccc(CN2CCC3(C2)C(=O)N(CC(C)C)c2ccccc23)s1 (centres undefined)	%	-0.324
COCC(O)CN1CC(C)(C)CN(C(=O)CCc2ccccc2)CC1=O (centres undefined)	%	-1.83
Cc1ccc(CN(CCCO)Cc2nc3ccccc3[nH]2)s1	%	7.18
CC(C)N1CCC2(CC1)CN(C)C(=O)C[C@H]2C(F)(F)F	%	-160
O=C(Cc1ccccn1)N1CCN2C[C@H](OCCN3CCCC3)C[C@H]2C1	%	-77.2
CC(C)(C)c1ccc(S(=O)(=O)CCNC(=O)c2cnccn2)cc1	%	4.92
CC(C(=O)N1CCOCC1)n1cc(Br)cn1 (centres undefined)	%	14.1
COc1ccc(NC(=O)CCC2CCCN(S(=O)(=O)C3CC3)C2)cc1Cl (centres undefined)	%	11.3
